# key: entry, value: TGI
System: COLO 205 colon
Assay: NCI tumour cell line growth inhibition, 48 h

Please review the entries below; each comes with its answer.
molecule	TGI
NC1CCN(Cc2ccccc2)CC1	> 100 µM
Cc1ccc(/C=N\NC2c3cc(Cl)ccc3Nc3nc(=O)[nH]c(C)c32)cc1 (configuration not stated)	> 100 µM
CCCCCCCCCCCCCCCC(=O)OCCOCCOCCOCc1ccccc1	> 100 µM
O=C1OCC/C1=N/O	> 100 µM
CCOc1ccc(/C=C2\N=C(c3ccc([N+](=O)[O-])cc3)OC2=O)cc1	> 100 µM
Cc1nc(N)sc1N=Nc1ccccc1Br	> 93 µM
COc1ccc2c(c1OCC(=O)O)C(=O)C(CCC(=O)O)CC2 (configuration not stated)	> 100 µM
O=c1[nH][nH]c(=O)n1CCCCCCn1c(=O)[nH][nH]c1=O	> 100 µM
CC1OC(c2ccc3c(OCc4ccccc4)cccc3c2O)CC(OCc2ccccc2)[C@H]1OCc1ccccc1 (some centres not stated)	> 10 µM
O=C(O)CN1CCNCCN(CC(=O)O)CCN(CC(=O)O)CCNCC1	> 100 µM

Ask: Given the entry "COc1cc(OC)cc(C(=O)CC(=O)c2cc(OC)cc(OC)c2)c1" , report its measured TGI.
Reply: > 100 µM

Ask: Please answer likewise for "CCCCCCCCCCCCCCCCNc1cccc2ccccc12"
Reply: > 100 µM
